assay_name: Solubility of Compound 1 (HPLC), selection of solubilizer type
Assay type: physicochemical
assay_setup: aqueous sbecd, poloxamer 188, solubility in aqueous SBECD 10% and Poloxamer 188 1%; 24 h at 25°C; read-out: Concentration
value_kind: solubility at 24 h (µg/mL)
Give just the numeric value; µg/mL need not be written.

For the compound N=C1NC[C@@H](c2nnc([C@@H]3CC4(CC4)[C@@H]4CN3C(=O)N4OS(=O)(=O)O)o2)N1 [Compound 1] , give its measured solubility at 24 h value.
6750

* * *

assay_name: Solubility of Compound 1 (HPLC), selection of solubilizer type
Assay type: physicochemical
assay_setup: aqueous hp-β-cd 20%, solubility in aqueous HP-β-CD 20%; 24 h at 25°C; read-out: Concentration
value_kind: solubility at 24 h (µg/mL)
Give just the numeric value; µg/mL need not be written.

For the compound N=C1NC[C@@H](c2nnc([C@@H]3CC4(CC4)[C@@H]4CN3C(=O)N4OS(=O)(=O)O)o2)N1 , give its measured solubility at 24 h value.
6400

* * *

assay_name: Solubility of Compound 1 (HPLC), selection of solubilizer type
Type: physicochemical
assay_setup: aqueous sbecd 10%, peg 400, organic solvent or mixture, solubility in aqueous SBECD 10% and PEG 400 5%; 24 h at 25°C; read-out: Concentration
value_kind: solubility at 24 h (µg/mL)
Give just the numeric value; µg/mL need not be written.

For the compound N=C1NC[C@@H](c2nnc([C@@H]3CC4(CC4)[C@@H]4CN3C(=O)N4OS(=O)(=O)O)o2)N1 , give its measured solubility at 24 h value.
6210

* * *

assay_name: Solubility of Compound 1 (HPLC), selection of solubilizer type
Format: physicochemical
assay_setup: aqueous hp-β-cd 30%, solubility in aqueous HP-β-CD 30%; 24 h at 25°C; read-out: Concentration
value_kind: solubility at 24 h
Provide the measurement as a number trailed by its unit.

For the compound N=C1NC[C@@H](c2nnc([C@@H]3CC4(CC4)[C@@H]4CN3C(=O)N4OS(=O)(=O)O)o2)N1 [Compound 1] , give its measured solubility at 24 h value.
7720 µg/mL

* * *

assay_name: Solubility of Compound 1 (HPLC), selection of solubilizer type
Format: physicochemical
assay_setup: aqueous hp-β-cd 10%, solubility in aqueous HP-β-CD 10%; 24 h at 25°C; read-out: Concentration
value_kind: solubility at 24 h
Provide the measurement as a number trailed by its unit.

For the molecule N=C1NC[C@@H](c2nnc([C@@H]3CC4(CC4)[C@@H]4CN3C(=O)N4OS(=O)(=O)O)o2)N1 [Compound 1] , give its measured solubility at 24 h value.
5000 µg/mL

* * *

assay_name: Solubility of Compound 1 (HPLC), selection of solubilizer type
Format: physicochemical
assay_setup: aqueous sbecd 10%, peg 400, organic solvent or mixture, solubility in aqueous SBECD 10% and PEG 400 40%; 24 h at 25°C; read-out: Concentration
value_kind: solubility at 24 h (µg/mL)
Give just the numeric value; µg/mL need not be written.

For the compound N=C1NC[C@@H](c2nnc([C@@H]3CC4(CC4)[C@@H]4CN3C(=O)N4OS(=O)(=O)O)o2)N1 , give its measured solubility at 24 h value.
6840

* * *

assay_name: Solubility of Compound 1 (HPLC), selection of solubilizer type
Assay type: physicochemical
assay_setup: aqueous sbecd 10%, pvp k12, solubility in aqueous SBECD 10% and PVP K12 2.5%; 24 h at 25°C; read-out: Concentration
value_kind: solubility at 24 h (µg/mL)
Give just the numeric value; µg/mL need not be written.

For the compound N=C1NC[C@@H](c2nnc([C@@H]3CC4(CC4)[C@@H]4CN3C(=O)N4OS(=O)(=O)O)o2)N1 , give its measured solubility at 24 h value.
6380

* * *

assay_name: Solubility of Compound 1 (HPLC), selection of solubilizer type
Type: physicochemical
assay_setup: water, solubility in water (control); incubated 24 h at 25°C; read-out: Concentration
value_kind: solubility at 24 h (µg/mL)
Give just the numeric value; µg/mL need not be written.

For the compound N=C1NC[C@@H](c2nnc([C@@H]3CC4(CC4)[C@@H]4CN3C(=O)N4OS(=O)(=O)O)o2)N1 [Compound 1] , give its measured solubility at 24 h value.
600

* * *

assay_name: Solubility of Compound 1 (HPLC), selection of solubilizer type
Type: physicochemical
assay_setup: aqueous sbecd 10%, peg 400, organic solvent or mixture, solubility in aqueous SBECD 10% and PEG 400 20%; 24 h at 25°C; read-out: Concentration
value_kind: solubility at 24 h (µg/mL)
Give just the numeric value; µg/mL need not be written.

For the compound N=C1NC[C@@H](c2nnc([C@@H]3CC4(CC4)[C@@H]4CN3C(=O)N4OS(=O)(=O)O)o2)N1 [Compound 1] , give its measured solubility at 24 h value.
6350

* * *

assay_name: Solubility of Compound 1 (HPLC), selection of solubilizer type
Format: physicochemical
assay_setup: aqueous sbecd, pvp, poloxamer 188, solubility in aqueous SBECD 10%, PVP K12 0.5% and Poloxamer 188 1%; 24 h at 25°C; read-out: Concentration
value_kind: solubility at 24 h (µg/mL)
Give just the numeric value; µg/mL need not be written.

For the compound N=C1NC[C@@H](c2nnc([C@@H]3CC4(CC4)[C@@H]4CN3C(=O)N4OS(=O)(=O)O)o2)N1 , give its measured solubility at 24 h value.
6950

* * *

assay_name: Solubility of Compound 1 (HPLC), selection of solubilizer type
Type: physicochemical
assay_setup: aqueous sbecd, pvp, tween 80, solubility in aqueous SBECD 10%, PVP K12 0.5% and Tween 80 1%; 24 h at 25°C; read-out: Concentration
value_kind: solubility at 24 h

For the molecule N=C1NC[C@@H](c2nnc([C@@H]3CC4(CC4)[C@@H]4CN3C(=O)N4OS(=O)(=O)O)o2)N1 , give its measured solubility at 24 h value.
6990 µg/mL

* * *

assay_name: Solubility of Compound 1 (HPLC), selection of solubilizer type
Assay type: physicochemical
assay_setup: aqueous sbecd 10%, solubility in aqueous SBECD 10%; 24 h at 25°C; read-out: Concentration
Procedure: The solubilization effect of sodium sulfobutylether-β-cyclodextrin (SBECD) and hydroxypropyl-β-cyclodextrin (HP-β-CD) on Compound 1 was investigated by taking the solubility in 50 mM pH 4.5 acetate buffer medium and water as a reference. […] Table Solubility of Compound 1 incubated for 24 h at 25°C In the art, surfactants may also be used for solubilization. To further improve the solubility of Compound 1, a surfactant was added on the basis of SBECD to investigate the solubility. […]
value_kind: solubility at 24 h (µg/mL)
Give just the numeric value; µg/mL need not be written.

For the compound N=C1NC[C@@H](c2nnc([C@@H]3CC4(CC4)[C@@H]4CN3C(=O)N4OS(=O)(=O)O)o2)N1 , give its measured solubility at 24 h value.
5960

* * *

assay_name: Solubility of Compound 1 (HPLC), selection of solubilizer type
Assay type: physicochemical
assay_setup: aqueous sbecd, pvp, solutol hs15, solubility in aqueous SBECD 10%, PVP K12 0.5% and Solutol HS15 1%; 24 h at 25°C; read-out: Concentration
value_kind: solubility at 24 h (µg/mL)
Give just the numeric value; µg/mL need not be written.

For the compound N=C1NC[C@@H](c2nnc([C@@H]3CC4(CC4)[C@@H]4CN3C(=O)N4OS(=O)(=O)O)o2)N1 [Compound 1] , give its measured solubility at 24 h value.
6870

* * *

assay_name: Solubility of Compound 1 (HPLC), selection of solubilizer type
Format: physicochemical
assay_setup: aqueous sbecd, tween 80, solubility in aqueous SBECD 10% and Tween 80 1%; 24 h at 25°C; read-out: Concentration
value_kind: solubility at 24 h (µg/mL)
Give just the numeric value; µg/mL need not be written.

For the compound N=C1NC[C@@H](c2nnc([C@@H]3CC4(CC4)[C@@H]4CN3C(=O)N4OS(=O)(=O)O)o2)N1 [Compound 1] , give its measured solubility at 24 h value.
6920

* * *

assay_name: Solubility of Compound 1 (HPLC), selection of solubilizer type
Type: physicochemical
assay_setup: aqueous sbecd 30%, solubility in aqueous SBECD 30%; 24 h at 25°C; read-out: Concentration
value_kind: solubility at 24 h

For the compound N=C1NC[C@@H](c2nnc([C@@H]3CC4(CC4)[C@@H]4CN3C(=O)N4OS(=O)(=O)O)o2)N1 , give its measured solubility at 24 h value.
10.5 mg/mL

* * *

assay_name: Solubility of Compound 1 (HPLC), selection of solubilizer type
Type: physicochemical
assay_setup: aqueous sbecd, solutol hs15, solubility in aqueous SBECD 10% and Solutol HS15 1%; 24 h at 25°C; read-out: Concentration
value_kind: solubility at 24 h (µg/mL)
Give just the numeric value; µg/mL need not be written.

For the compound N=C1NC[C@@H](c2nnc([C@@H]3CC4(CC4)[C@@H]4CN3C(=O)N4OS(=O)(=O)O)o2)N1 , give its measured solubility at 24 h value.
6680

These measurements were taken from patent EP4659750A1.
